# FACS-Ec50 ratio to BG87P values compiled below
- experimentalTarget: T1, human claudin 6 (CLDN6) (human, UniProt P56747 1-220)
- T1 construct: also called human CLDN6; hCLDN6
- T1 sequence: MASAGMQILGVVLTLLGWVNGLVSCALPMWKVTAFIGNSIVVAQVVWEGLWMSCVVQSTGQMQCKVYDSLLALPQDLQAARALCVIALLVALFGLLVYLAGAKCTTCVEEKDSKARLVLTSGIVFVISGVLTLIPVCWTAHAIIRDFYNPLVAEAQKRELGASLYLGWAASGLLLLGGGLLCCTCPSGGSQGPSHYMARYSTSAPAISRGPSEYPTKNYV
- methodSummary: FACS, HEK293-hCLDN6 cells
valueKind: FACS-Ec50 ratio to BG87P (ratio)

chimeric BG87P antibody (chBG87P) (antibody, V domains shown) VH: QIQLQQSGPELVKPGASVKISCKASGYSFTDYHINWVKQRPGQGLEWIGWIYPGSGYTKYNEKFKVKATLTVDTSSSTAYMHLTSLTSEDSAVYFCARSGIYHYVSSYYFDHWGQGTTLTVSS VL: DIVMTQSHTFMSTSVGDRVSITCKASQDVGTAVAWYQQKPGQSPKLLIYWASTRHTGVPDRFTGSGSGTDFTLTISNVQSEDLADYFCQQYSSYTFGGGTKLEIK | 1
BG87P-21 (antibody, V domains shown) VH: QVQLVQSGAEVKKPGASVKVSCKASGYSFTDYHINWVRQAPGQRLEWMGWIYPGSGYTKYNEKFKGRVTITRDTSASTAYMELSSLRSEDTAVYYCARSGIYHYVSSYYFDHWGKGTTVTVSS VL: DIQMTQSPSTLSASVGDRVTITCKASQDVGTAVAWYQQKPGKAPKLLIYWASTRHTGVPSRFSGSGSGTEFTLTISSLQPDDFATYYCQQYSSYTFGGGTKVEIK | 0.91
BG87P-34 (antibody, V domains shown, Framework-swapped final lead (IGHV3-23 / IGKV1-39); also called BG87-34) VH: EVQLQESGGGLVQPGGSLRLSCAASGYSFSDYHINWVRQAPGKGLEWVGYIYPGSGHTKYNEKFKGRFTISRDTSSNTAYLQMNSLRAEDTAVYYCARSGIYHYVSSYYFDHWGQGTLVTVSS VL: DIQMTQSPSSLSASVGDRVTITCKASQDAGSAVAWYQQKPGKAPKLLIYWASTRHTGVPSRFSGSGSGTDFTLTISSLQPEDFATYYCQQYSSYTFGGGTKLEIK | 1.17
BG87P-31 (antibody, V domains shown, Solubility engineering variant of BG87P-21) VH: QVQLQQSGAETKKPGASVKVSCKASGYSFTDYHINWVRQASGQRLEWMGYIYPGSGHTKKNEKFKGRVTITRDTSASTAYMELSSLRSEDTAVYYCARSGIYHYVSSYYFDHWGKGTTVTVSS VL: DIQMTQSPSTLSASVGDRVTITCKASQDAGSAVAWYQQKPGKAPKLLIKWASTRHTGVPSRFSGSGSGTEFTLTISSLQPDDFATYYCQQYSSYTFGGGTKVEIK | 1.6
BG87P-33 (antibody, V domains shown, Framework-swapped variant; also called BG87-33) VH: EVQLQESGGGLVQPGGSLRLSCAASGYSFTDYHINWVRQAPGKGLEWVSYIYPGSGHTKYNEKFKGRFTISRDTSKNTAYLQMNSLRAEDTAVYYCARSGIYHYVSSYYFDHWGQGTLVTVSS VL: DIQMTQSPSTLSASVGDRVTITCKASQDAGSAVAWYQQKPGKAPKLLIYWASTRHTGVPSRFSGSGSGTEFTLTISSLQPDDFATYYCQQYSSYTFGGGTKVEIK | 2.45
BG87P-32 (antibody, V domains shown, Solubility engineering variant of BG87P-21) VH: QVQLQQSGAETKKPGASVKVSCKASGYSFTDYHINWVRQASGQRLEWMGYIYPGSGHTKKNEKFKGRVTITRDTSASTAYMELSSLRSEDTAVYYCARSGIYHYVSSYYFDHWGKGTTVTVSS VL: DIQMTQSPSTLSASVGDRVTITCKASQDAGSAVAWYQQKPGKAPKLLIYWASTRHTGVPSRFSGSGSGTEFTLTISSLQPDDFATYYCQQYSSYTFGGGTKVEIK | 1.31
